// reported growth per item
# System: MOLT-4 leukemia
# experiment.summary: NCI-60 one-dose screen, 48 h (100 = growth as untreated, 0 = no growth, -100 = all killed)
# test.settings: 10 µM unless noted
This is part of a sample that, as a whole, favours compounds with a hit. Of some 83,000 tested, about 20% had one in any assay.

{"compound": "CC/C(=C(/c1ccc(Cl)cc1)c1ccc(OCCN(C)C)cc1)c1ccc(Cl)cc1", "measurement.units": "%", "growth": 58.2}
{"compound": "O=C1Nc2ccccc2/C1=C/c1cccn1CCCCn1c2ccccc2c(=O)c2ccccc21", "measurement.units": "%", "growth": 47.7}
{"compound": "C=C(CBr)[C@@H]1CC[C@]2(C(=O)O)CC[C@]3(C)[C@H](CC[C@@H]4[C@@]5(C)CCC(=O)C(C)(C)[C@@H]5CC[C@]43C)[C@@H]12", "measurement.units": "%", "growth": 54.4}
{"compound": "O=C(Nc1ccc(Oc2cccc(Cl)c2)c(Cl)c1)c1cnccn1", "measurement.units": "%", "growth": 26.2}
{"compound": "CC1(C)CC(=O)C2=C(C1)N(c1ccc(OC(F)(F)F)cc1)C(N)=C(C#N)C2c1ccc(Br)cc1F (centres undefined)", "measurement.units": "%", "growth": 63}
{"compound": "Oc1c(I)cc(I)cc1CNCc1ccccn1", "measurement.units": "%", "growth": 16.2}
{"compound": "Cn1c(=O)cc2c3c(c(NCCCO)ccc31)C(=O)c1ccccc1-2", "measurement.units": "%", "growth": 19.2}
{"compound": "O=CN1N=C(c2cccc(Nc3ccnc4cc(Cl)ccc34)c2)CC1c1ccccc1 (centres undefined)", "measurement.units": "%", "growth": 10}
{"compound": "COc1ccc(C2CC(c3ccc(Nc4nc(Nc5ccccc5)nc(Nc5ccccc5)n4)cc3)=NN2C(C)=O)cc1 (centres undefined)", "measurement.units": "%", "growth": 71.2}
{"compound": "C=CC(=O)N1CCN(c2cccc(Oc3nccc(Nc4nnc(-c5ccc(Br)cc5)s4)n3)c2)CC1", "measurement.units": "%", "growth": 70.6}
{"compound": "COc1cc(OC)c(NC(=O)c2cc3ccccc3cc2O)cc1Cl", "measurement.units": "%", "growth": 26.9}
{"compound": "CCO/C=N/C1=C(C#N)C(c2ccc(Cl)cc2)c2sc3c(F)cccc3c2O1 (centres undefined)", "measurement.units": "%", "growth": 71.5}
{"compound": "NNc1nc(-c2cccnc2)nc2c1sc(=S)n2-c1ccccc1", "measurement.units": "%", "growth": 86}
{"compound": "OCCn1cc(-c2nc(-c3c[nH]c4ncccc34)cs2)c2cc(F)ccc21", "measurement.units": "%", "growth": 54.5}

* * *

# Test system: SNB-19 CNS
# experiment.summary: NCI-60 one-dose screen, 48 h
# test.settings: 10 µM unless noted
This is part of a sample that, as a whole, favours compounds with a hit. Of some 83,000 tested, about 20% had one in any assay. Active and inactive are the calls of the source. Rule for the calls: active = growth percent below 10; inactive = the rest.
Possible outcomes: 1.0 for active, 0.0 for inactive

{"molecule": "CC(=O)Oc1ccc(/C(=C(\\C)c2ccc(Cl)cc2)c2ccc(OCCN3CCCCC3)cc2)cc1", "cat": 0.0}
{"molecule": "Cc1cc(C(=O)O)c(C)n1-c1cccc(C(=O)O)c1", "cat": 0.0}
{"molecule": "CC1=C([Se]CC(OC(=O)CC[Se]c2ccccc2)C(=O)NC(C)(C)C)C(=O)c2ccccc2C1=O (centres undefined)", "cat": 1.0}
{"molecule": "N#Cc1ccc2c(c1)C(=O)c1c-2n(CCCN)c(=O)c2cc([N+](=O)[O-])ccc12", "cat": 1.0}

* * *

# System: SF-295 CNS
# experiment.summary: NCI-60 one-dose screen, 48 h
# test.settings: 10 µM unless noted
About 83,000 compounds went through this panel and 20% of them were active in at least one assay; those are over-represented in the sample as a whole. Active and inactive are the calls of the source. How the source made its calls: active means growth percent below 10; inactive means the rest.
Possible outcomes: True for active, False for inactive

{"compound": "O=C(/C=C/c1ccco1)Nc1ncc(Cc2cccc(C(F)(F)F)c2)s1", "cat": "True"}
{"compound": "Cc1ccc(Nc2cc(N)nc(N)n2)cc1Cl", "cat": "False"}
{"compound": "CCOC(=O)C/C(=N\\Nc1cc(=O)[nH]c2ccc(Br)cc12)C(=O)OCC", "cat": "False"}
{"compound": "COC1=CC(c2ccc[nH]2)=N/C1=C\\c1[nH]c(C)c(C)c1CCC(=O)OCc1ccccc1", "cat": "True"}
{"compound": "COc1ccc(C2=Nc3c(N)nc(N)nc3NC(c3cccc(Nc4ccnc5cc(C(F)(F)F)ccc45)c3)C2)cc1 (stereo not drawn)", "cat": "False"}
{"compound": "CCOC(=O)c1ccc(NC(=O)c2nc(-c3cc(OC)c(OC)c(OC)c3)n(-c3ccc(Cl)cc3)n2)cc1", "cat": "False"}
{"compound": "COc1ccc(NC(=O)c2sc3nc(C)c(C(=O)/C=C/c4ccccc4)cc3c2N)cc1", "cat": "False"}
{"compound": "O=c1c2cnn(-c3ccccc3)c2n2c(CN3CCOCC3)nnc2n1-c1ccccc1", "cat": "False"}
{"compound": "CC(C)COc1nc2c(c(=O)n(C)c(=O)n2C)n1C", "cat": "False"}
{"compound": "[O-]/[N+](=C\\c1ccc(-n2cc(Cc3ccccc3Cc3cn(-c4ccc(/C=[N+](/[O-])c5ccccc5)cc4)nn3)nn2)cc1)c1ccccc1", "cat": "False"}
{"compound": "Nc1nc2ccc(-c3nc4ccc5[nH]ncc5c4c4c3CCCC4)cc2s1", "cat": "False"}
{"compound": "NC(=O)CSc1oc(-c2ccccc2)nc1S(=O)(=O)c1ccc(Br)cc1", "cat": "False"}
{"compound": "NC(Cc1ccc(O)c([N+](=O)[O-])c1)C(=O)O (stereo not drawn)", "cat": "False"}

* * *

# Tested on: LOX IMVI melanoma
# experiment.summary: NCI-60 one-dose screen, 48 h (100 = growth as untreated, 0 = no growth, -100 = all killed)
# test.settings: 10 µM unless noted
Compounds without any hit were thinned out: in the full panel of roughly 83,000, 20% have a hit.

{"molecule": "NS(=O)(=O)c1ccccc1NC(=O)Nc1nc2ccccc2s1", "growth (%)": 91.8}
{"molecule": "C#CCOc1ccc2ncnc(Nc3ccc(NC(=O)C=C)cc3)c2c1", "growth (%)": -82.6}
{"molecule": "CC1OC(n2c3ccccc3c3c4c(c5c6ccccc6[nH]c5c32)C(=O)N(CCN2CCCC2)C4=O)CC(O)C1O (configuration not stated)", "growth (%)": 25.3}
{"molecule": "COc1ccc(/C=C/C(=O)c2cc3c(N)c(C(=O)Nc4cccc5ccccc45)sc3nc2C)cc1", "growth (%)": 60.1}
{"molecule": "COC(=O)c1c(C)nc(C)c2c1C(=O)C(Br)=C(NCc1ccccc1)C2=O", "growth (%)": 6.45}
{"molecule": "Cc1ccccc1/C=C/C(=O)c1cccc(OCCCCOc2cccc(C(=O)/C=C/c3ccccc3C)c2)c1", "growth (%)": 95.9}
{"molecule": "NC(=O)C(=O)c1ccccc1NC=O", "growth (%)": 93.1}
{"molecule": "CC1(C)COB(OCC(C)(C)COB2OCC(C)(C)CO2)OC1", "growth (%)": 96}
{"molecule": "COC(=O)/C=C1/SC(=Nc2cccc(OC)c2)N(CCc2c[nH]c3ccc(O)cc23)C1=O", "growth (%)": 23.5}
{"molecule": "Cc1cccc(/C=C2\\CN(C(=O)OC(C)(C)C)C/C(=C\\c3cccc(C)c3)C2=O)c1", "growth (%)": 47.1}
{"molecule": "O=c1[nH]c(Cc2nc3ccccc3s2)nc2cc(Br)ccc12", "growth (%)": 27.8}
{"molecule": "Clc1ccc2c(NC3CCC(N4CCOCC4)CC3)ccnc2c1 (configuration not stated)", "growth (%)": 68.6}
{"molecule": "N#CC(C#N)N=Nc1ccc(Br)cc1", "growth (%)": 60.1}
{"molecule": "Nc1n[nH]c2ccc([C@H]3[C@@H]4C5CCC(C5)[C@@H]4c4c(ccc5[nH]ncc45)N3S(=O)(=O)C3CC3)cc12 (some centres not stated)", "growth (%)": 8.72}
{"molecule": "COc1ccc(C(=O)/C=C/c2c(C(F)(F)F)nc3ccccn23)cc1OC", "growth (%)": -53.1}
{"molecule": "CCC(=C(c1ccc(OCCN2CCCCC2)cc1)c1ccc(OCCN2CCCCC2)cc1)c1ccc(Cl)cc1", "growth (%)": -84.8}
{"molecule": "CC1CN(S(=O)(=O)c2oc(-c3ccc(Cl)cc3)nc2C#N)CC(C)O1 (configuration not stated)", "growth (%)": 8.2}

* * *

# Test system: SF-539 CNS
# experiment.summary: NCI-60 one-dose screen, 48 h (100 = growth as untreated, 0 = no growth, -100 = all killed)
# test.settings: 10 µM unless noted
This is part of a sample that, as a whole, favours compounds with a hit. Of some 83,000 tested, about 20% had one in any assay.
# growth binned as lower bin (below -20%), middle bin (-20% to below 70%), upper bin (70% or more)

{"compound": "O=C(/C=C/c1cn(-c2ccccc2)nc1-c1ccc(Cl)cc1)c1ccc(F)cc1", "study.target": "SF-539 CNS", "cat": "upper bin"}
{"compound": "CSc1nc2ccccc2cc1/C=[N+](\\[O-])c1ccccc1", "study.target": "SF-539 CNS", "cat": "middle bin"}
{"compound": "Cc1c2cnccc2c(C)c2c1c1cc(C#N)ccc1n2C", "study.target": "SF-539 CNS", "cat": "lower bin"}
{"compound": "O=C(/C=C/c1ccco1)Nc1ncc(Cc2cccc(C(F)(F)F)c2)s1", "study.target": "SF-539 CNS", "cat": "lower bin"}
{"compound": "COC(=O)CC[C@@H]1O[C@@H](c2cccc(C(F)(F)F)c2)[C@@H](O)[C@H]1O", "study.target": "SF-539 CNS", "cat": "upper bin"}
{"compound": "COCCOc1cc2ncnc(N3CCN(c4ncc(S(=O)(=O)N5CCCCC5)cn4)CC3)c2cc1OCCOC", "study.target": "SF-539 CNS", "cat": "upper bin"}
{"compound": "CN1C(=O)/C(=C\\c2nc([P+](c3ccccc3)(c3ccccc3)c3ccccc3)c(N3CCOCC3)o2)SC1=S", "study.target": "SF-539 CNS", "cat": "middle bin"}
{"compound": "NC(=O)c1cccc(-n2ccc3cc(NC(=O)c4ccc(N5CCOCC5)c(C(F)(F)F)c4)ccc32)n1", "study.target": "SF-539 CNS", "cat": "middle bin"}
{"compound": "CC1CCN(CCOc2ccc(CNc3ccc4nc(CCC5CCCCC5)[nH]c4c3)cc2)CC1", "study.target": "SF-539 CNS", "cat": "lower bin"}

Source: PubChem BioAssay (NCI)
